- Study system: human adrenergic β1 receptor (Homo sapiens, UniProt P08588)
- Sequence (P08588 whole entry): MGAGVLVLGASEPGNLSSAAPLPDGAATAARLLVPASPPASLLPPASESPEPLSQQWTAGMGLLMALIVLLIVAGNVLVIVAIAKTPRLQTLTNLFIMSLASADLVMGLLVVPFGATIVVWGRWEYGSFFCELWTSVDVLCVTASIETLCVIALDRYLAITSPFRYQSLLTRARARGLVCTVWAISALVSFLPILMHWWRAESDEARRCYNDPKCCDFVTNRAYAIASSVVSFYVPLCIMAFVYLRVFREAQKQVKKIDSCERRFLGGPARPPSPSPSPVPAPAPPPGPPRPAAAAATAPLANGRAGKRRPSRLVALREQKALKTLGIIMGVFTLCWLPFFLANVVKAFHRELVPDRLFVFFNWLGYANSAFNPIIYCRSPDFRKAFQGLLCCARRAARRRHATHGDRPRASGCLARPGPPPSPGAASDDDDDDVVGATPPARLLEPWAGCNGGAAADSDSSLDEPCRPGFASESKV
Note to self: IC50 under 20 nM means yes (1), ties and anything higher get no (0).

In plain terms, does O=C(NCCc1ccccc1)Nc1cccc(CCNCC(O)c2ccc(O)c3[nH]c(=O)ccc23)c1 (stereo not drawn) [Example 11] come in under 20 nM for IC50?
yes (1)

In plain terms, does O=C(Nc1cccc(CCNCC(O)c2ccc(O)c3[nH]c(=O)ccc23)c1)NC12CC3CC(CC(C3)C1)C2 (stereo not drawn) [Example 16] come in under 20 nM for IC50?
no (0)

In plain terms, does COc1ccccc1CNC(=O)Nc1cccc(CCNCC(O)c2ccc(O)c3[nH]c(=O)ccc23)c1 (stereo not drawn) [Example 9] come in under 20 nM for IC50?
no (0)

In plain terms, does CC(C)(C)c1ccc(CNC(=O)Nc2cccc(CCNC[C@H](O)c3ccc(O)c4[nH]c(=O)ccc34)c2)cc1 (racemic) [Example 33] come in under 20 nM for IC50?
no (0)

In plain terms, does O=C(NCCCCc1ccccc1)Nc1cccc(CCNCC(O)c2ccc(O)c3[nH]c(=O)ccc23)c1 (stereo not drawn) [Example 20] come in under 20 nM for IC50?
yes (1)

----------
- Study system: human adrenergic β2 receptor (Homo sapiens, UniProt P07550)
- Construct: purchased Perkin Elmer; host or cells: Sf9 cells
- Sequence (P07550 whole entry): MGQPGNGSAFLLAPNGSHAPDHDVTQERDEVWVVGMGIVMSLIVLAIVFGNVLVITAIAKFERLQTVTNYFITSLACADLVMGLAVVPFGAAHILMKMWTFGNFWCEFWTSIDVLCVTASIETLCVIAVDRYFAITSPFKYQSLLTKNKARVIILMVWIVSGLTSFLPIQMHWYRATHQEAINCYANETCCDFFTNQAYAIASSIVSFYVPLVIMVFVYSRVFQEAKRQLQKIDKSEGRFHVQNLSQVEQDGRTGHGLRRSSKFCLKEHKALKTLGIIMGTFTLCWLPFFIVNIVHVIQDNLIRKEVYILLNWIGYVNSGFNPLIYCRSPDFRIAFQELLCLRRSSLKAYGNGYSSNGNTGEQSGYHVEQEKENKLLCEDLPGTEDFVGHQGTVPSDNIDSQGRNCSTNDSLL
- Assay text: Human adrenergic β2 receptor binding assay (3H-CGP12177, Sf9 membranes)
- Condition context: ratio of human β1 IC50 to human β2 IC50
I'd appreciate it if you could supply β1/β2 ratio values for the items below.
Keep the answer to the number alone.

Item O=C(NCCCCc1ccccc1)Nc1cccc(CCNCC(O)c2ccc(O)c3[nH]c(=O)ccc23)c1 (stereo not shown) with human adrenergic β2 receptor (Homo sapiens, UniProt P07550) - β1/β2 ratio?
4.5

Item CC(C)(C)c1ccc(CNC(=O)Nc2cccc(CCNC[C@H](O)c3ccc(O)c4[nH]c(=O)ccc34)c2)cc1 (racemic) with human adrenergic β2 receptor (Homo sapiens, UniProt P07550) - β1/β2 ratio?
6.0

Item O=C(NCc1ccccc1)Nc1cccc(CCNCC(O)c2ccc(O)c3[nH]c(=O)ccc23)c1 (stereo not shown) with human adrenergic β2 receptor (Homo sapiens, UniProt P07550) - β1/β2 ratio?
11.0

Item COc1ccccc1CNC(=O)Nc1cccc(CCNCC(O)c2ccc(O)c3[nH]c(=O)ccc23)c1 (stereo not shown) with human adrenergic β2 receptor (Homo sapiens, UniProt P07550) - β1/β2 ratio?
7.9

Item COc1ccccc1CNC(=O)Nc1cccc(CC(C)NCC(O)c2ccc(O)c3[nH]c(=O)ccc23)c1 (stereo not shown) with human adrenergic β2 receptor (Homo sapiens, UniProt P07550) - β1/β2 ratio?
11.7

Item O=C(Nc1cccc(CCNCC(O)c2ccc(O)c3[nH]c(=O)ccc23)c1)NC12CC3CC(CC(C3)C1)C2 (stereo not shown) with human adrenergic β2 receptor (Homo sapiens, UniProt P07550) - β1/β2 ratio?
3.8

Item CC(Cc1cccc(NC(=O)NCc2ccccc2)c1)NCC(O)c1ccc(O)c2[nH]c(=O)ccc12 (stereo not shown) with human adrenergic β2 receptor (Homo sapiens, UniProt P07550) - β1/β2 ratio?
8.2

----------
- Study system: human adrenergic β2 receptor (Homo sapiens, UniProt P07550)
- Construct: purchased Perkin Elmer; host or cells: Sf9 cells
- Assay text: Human adrenergic β2 receptor binding assay (3H-CGP12177, Sf9 membranes)
- Condition context: ratio of human β1 IC50 to human β2 IC50
- Procedure: Human Adrenergic β1 and β2 Receptor Binding Assays The study of binding to human adrenergic β1 and β2 receptors was performed using commercial membranes prepared from Sf9 cells where they are overexpressed (Perkin Elmer). […]
I'd appreciate it if you could supply β1/β2 ratio values for the items below.
Keep the answer to the number alone.

Which β1/β2 ratio is listed for `O=C(Nc1ccc(CCNC[C@H](O)c2ccc(O)c3[nH]c(=O)ccc23)cc1)NC(c1ccccc1)c1ccccc1` ?
4.3

Which β1/β2 ratio is listed for O=C(NCCCc1ccccc1)Nc1cccc(CCNCC(O)c2ccc(O)c3[nH]c(=O)ccc23)c1 (stereo not shown) ?
7.4

Which β1/β2 ratio is listed for `O=C(Nc1cccc(CCNC[C@H](O)c2ccc(O)c3[nH]c(=O)ccc23)c1)Nc1ccccc1-c1ccccc1` ?
2.5

Which β1/β2 ratio is listed for O=C(Nc1ccccc1)Nc1cccc(CCNCC(O)c2ccc(O)c3[nH]c(=O)ccc23)c1 (stereo not shown) ?
0.4
